# TESTED SYSTEM: T1, human CD22-ECD-His protein (human, UniProt P20273 20-687)
# T1 construct: Made in house in HEK293E; also called hCD22-ECD-His; recombinant human CD22-ECD His protein; not shown: His tag
# T1 sequence: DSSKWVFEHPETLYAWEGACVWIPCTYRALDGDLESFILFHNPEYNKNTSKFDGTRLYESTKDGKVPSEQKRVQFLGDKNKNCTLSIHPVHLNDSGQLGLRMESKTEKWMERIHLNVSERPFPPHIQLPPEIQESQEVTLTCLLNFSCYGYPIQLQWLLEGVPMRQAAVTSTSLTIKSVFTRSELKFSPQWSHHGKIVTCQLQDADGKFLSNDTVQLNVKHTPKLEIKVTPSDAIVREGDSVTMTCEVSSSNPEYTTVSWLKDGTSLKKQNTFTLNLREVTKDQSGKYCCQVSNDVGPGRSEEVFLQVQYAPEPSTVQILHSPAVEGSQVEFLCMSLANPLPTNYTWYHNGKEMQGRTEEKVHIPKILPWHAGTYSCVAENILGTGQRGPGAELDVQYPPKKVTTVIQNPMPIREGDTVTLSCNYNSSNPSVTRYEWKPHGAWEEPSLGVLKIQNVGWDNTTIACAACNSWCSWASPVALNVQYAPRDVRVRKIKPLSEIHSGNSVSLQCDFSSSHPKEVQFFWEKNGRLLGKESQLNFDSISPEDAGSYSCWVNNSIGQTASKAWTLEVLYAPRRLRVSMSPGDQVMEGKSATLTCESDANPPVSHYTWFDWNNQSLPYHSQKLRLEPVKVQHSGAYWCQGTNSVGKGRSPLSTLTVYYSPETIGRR
# METHOD SUMMARY: ELISA, Ab 100.00 nM
# Description: In order to detect the binding activity of CD22 human-murine chimeric antibodies to CD22 protein, the purified human CD22-ECD-His protein obtained in Example 2 was diluted with PBS to a final concentration of 2 μg/mL, and then added to 96-well ELISA plate at 100 μl/well. The plate was sealed with plastic film and incubated overnight at 4° C., the plate was washed 2 times with PBS the next day, and then a blocking solution [PBS+2% (w/w) BSA] was added for blocking at room temperature for 2 hours. […]
Exercise: for every item that follows, state its recorded OD450.
Give bare numbers, in OD450.

BINDER: F2.55.1 (antibody, human IgG1, lambda, V domains shown, Human-murine chimeric IgG1, lambda) VH: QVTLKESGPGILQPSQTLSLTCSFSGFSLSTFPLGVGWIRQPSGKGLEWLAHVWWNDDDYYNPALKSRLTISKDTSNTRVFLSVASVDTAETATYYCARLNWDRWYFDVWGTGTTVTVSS VL: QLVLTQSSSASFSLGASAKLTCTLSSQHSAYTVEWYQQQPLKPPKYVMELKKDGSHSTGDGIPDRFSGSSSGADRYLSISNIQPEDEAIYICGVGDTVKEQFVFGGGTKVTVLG
OUTPUT UNIT: OD450
OD450: 2.08
--
BINDER: F1.216.2 (antibody, human IgG1, kappa, V domains shown, Human-murine chimeric IgG1, kappa) VH: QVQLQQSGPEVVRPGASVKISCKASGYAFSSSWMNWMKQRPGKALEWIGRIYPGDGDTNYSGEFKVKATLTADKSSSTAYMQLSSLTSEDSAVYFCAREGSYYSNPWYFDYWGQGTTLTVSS VL: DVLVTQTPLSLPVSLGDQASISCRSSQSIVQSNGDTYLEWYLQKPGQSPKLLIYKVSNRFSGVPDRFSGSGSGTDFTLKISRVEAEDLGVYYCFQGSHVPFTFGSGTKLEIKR
OUTPUT UNIT: OD450
OD450: 2.69

Below is a list of binders. For each, state its recorded OD450.
1. F1.161.7 (antibody, human IgG1, kappa, V domains shown, Human-murine chimeric IgG1, kappa) VH: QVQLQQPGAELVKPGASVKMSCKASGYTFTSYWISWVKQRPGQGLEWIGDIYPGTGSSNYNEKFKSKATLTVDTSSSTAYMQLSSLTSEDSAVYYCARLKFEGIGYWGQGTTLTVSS VL: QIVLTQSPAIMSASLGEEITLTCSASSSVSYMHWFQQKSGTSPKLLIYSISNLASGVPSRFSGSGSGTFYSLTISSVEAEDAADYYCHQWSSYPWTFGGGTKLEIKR
2. F1.105.11 (antibody, human IgG1, kappa, V domains shown, Human-murine chimeric IgG1, kappa) VH: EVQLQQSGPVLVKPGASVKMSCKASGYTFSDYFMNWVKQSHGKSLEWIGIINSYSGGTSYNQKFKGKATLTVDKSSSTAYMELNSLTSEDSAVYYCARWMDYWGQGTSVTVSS VL: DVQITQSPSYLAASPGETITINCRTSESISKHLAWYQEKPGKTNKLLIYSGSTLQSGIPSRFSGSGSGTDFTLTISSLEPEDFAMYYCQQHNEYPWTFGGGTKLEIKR
3. F1.267.9 (antibody, human IgG1, kappa, V domains shown, Human-murine chimeric IgG1, kappa) VH: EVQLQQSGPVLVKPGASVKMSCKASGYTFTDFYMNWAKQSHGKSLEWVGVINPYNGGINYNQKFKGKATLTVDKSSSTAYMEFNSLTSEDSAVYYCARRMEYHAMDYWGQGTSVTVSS VL: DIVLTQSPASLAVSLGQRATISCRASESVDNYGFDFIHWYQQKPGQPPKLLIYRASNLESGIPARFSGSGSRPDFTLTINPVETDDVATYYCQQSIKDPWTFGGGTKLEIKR

RESULT:
1. 2.97
2. 2.79
3. 2.56
